molecular target: CDKs and other kinases (Homo sapiens, UniProt P50613); construct: other: CDK7H; residual activity (%) at 10 μM CDK7H; compound at 10 μM; experiment: Radiometric kinase assay (Eurofins Pharma Discovery or Reaction Biology Corporation Kinase Profiler); type: biochemical; settings: CDK7H; compound at 10 μM; read-out: residual activity (%) at 10 μM CDK7H
Sequence (P50613 whole entry): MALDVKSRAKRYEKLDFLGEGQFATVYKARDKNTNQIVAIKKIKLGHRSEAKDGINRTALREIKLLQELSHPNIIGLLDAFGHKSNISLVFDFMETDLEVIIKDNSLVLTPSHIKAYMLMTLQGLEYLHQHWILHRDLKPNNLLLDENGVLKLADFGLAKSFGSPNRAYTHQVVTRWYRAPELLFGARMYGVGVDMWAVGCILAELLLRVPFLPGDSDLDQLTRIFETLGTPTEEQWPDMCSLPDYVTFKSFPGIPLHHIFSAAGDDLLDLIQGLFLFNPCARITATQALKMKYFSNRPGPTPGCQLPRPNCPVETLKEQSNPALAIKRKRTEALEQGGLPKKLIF
Label fulfilled when remaining activity at 10 µM < 20%; otherwise not fulfilled.

Cc1cnc(N[C@H]2CC[C@@H](N3CCC3)CC2)nc1-c1cnc2ccc(-c3ccccc3)cn12 | not fulfilled
Cc1cnc(N[C@H]2CC[C@H](N)CC2)nc1-c1cnc2ccc(NC(=O)Cc3ccccc3)cn12 | not fulfilled
Cc1cnc(N[C@H]2CC[C@H](O)CC2)nc1-c1cnc2ccccn12 | not fulfilled
N[C@H]1CC[C@H](Nc2ncc(Cl)c(-c3cnc4cc(-c5ccccc5)ccn34)n2)CC1 | fulfilled
Cc1cnc(NC2CCC(N(C)C)CC2)nc1-c1cnc2ccc(-c3ccccc3)cn12 (stereo not shown) | fulfilled
N[C@H]1CC[C@H](Nc2ncc(F)c(-c3cnc4ccc(-c5cccnc5)cn34)n2)CC1 | fulfilled
Cc1cnc(N[C@]23C[C@@]4(C)C[C@](C)(C[C@](O)(C4)C2)C3)nc1-c1cnc2ccc(-c3ccccc3)cn12 | not fulfilled
Cc1cnc(N[C@H]2CC[C@@H](N)CC2)nc1-c1cnc2ccc(-c3ccccc3)cn12 | fulfilled
N[C@H]1CC[C@H](Nc2ncc(F)c(-c3cnc4ccc(-c5ccc(C(=O)N6CCNCC6)cc5)cn34)n2)CC1 | fulfilled
CN[C@H]1CC[C@H](Nc2ncc(C)c(-c3cnc4ccc(-c5ccccc5)cn34)n2)CC1 | fulfilled

QUERY: Lab note: confirm whether the reported remaining activity at 10 µM for this compound is below 20%, equality not counting. compound: CN1CCC(Nc2ncc(F)c(-c3cnc4ccc(-c5ccc(S(=O)(=O)N(C)C)cc5)cn34)n2)CC1
RESULT: fulfilled

QUERY: Lab note: confirm whether the reported remaining activity at 10 µM for this compound is below 20%, equality not counting. compound: COc1ccc(-c2ccc3ncc(-c4nc(N[C@H]5CC[C@H](N)CC5)ncc4C)n3c2)cn1
RESULT: not fulfilled

QUERY: Lab note: confirm whether the reported remaining activity at 10 µM for this compound is below 20%, equality not counting. compound: COc1cccc(-c2ccc3ncc(-c4nc(N[C@H]5CC[C@H](N)CC5)ncc4C)n3c2)c1
RESULT: fulfilled

QUERY: Lab note: confirm whether the reported remaining activity at 10 µM for this compound is below 20%, equality not counting. compound: Cc1cnc(N[C@H]2CC[C@H](O)CC2)nc1-c1cnc2ccc(Nc3cccnc3)cn12
RESULT: not fulfilled

QUERY: Lab note: confirm whether the reported remaining activity at 10 µM for this compound is below 20%, equality not counting. compound: Cc1cnc(NC2CCCC(N)C2)nc1-c1cnc2ccc(Nc3cccnc3)cn12 (stereo not shown)
RESULT: not fulfilled

QUERY: Lab note: confirm whether the reported remaining activity at 10 µM for this compound is below 20%, equality not counting. compound: Cc1cnc(N[C@H]2CN3CCC2CC3)nc1-c1cnc2ccc(Nc3cncnc3)cn12
RESULT: not fulfilled
